Each recorded value in this set is attributed to patent US11957761B2.

test_name: in vivo
measurement_parameters: male, Beagle, dog, plasma, sc, 200 ug/kg

smiles_notation: CC[C@H](C)[C@@H]1NC(=O)[C@H](CC(=O)O)NC(=O)[C@H](CC(C)C)NC(=O)c2ccc(-c3ccc(N4CCN(C(=O)c5ccccc5-c5ccccc5C(=O)N5CCN(c6ccc(-c7ccc8cc7CNC(=O)[C@@H]7CCCN7[C@H](C(=O)NC(C)(C)C)[C@H](C)NC(=O)[C@H]([C@@H](C)CC)NC(=O)[C@H](CC(=O)O)NC(=O)[C@H](CC(C)C)NC8=O)cc6)CC5)CC4)cc3)c(c2)CNC(=O)[C@@H]2CCCN2[C@H](C(=O)NC(C)(C)C)[C@H](C)NC1=O
unit_spec: nM
Cmax: 417

* * *

test_name: in vivo
measurement_parameters: male, Beagle, dog, plasma, sc, 400 ug/kg
readout_label: Cmax (µM)

smiles_notation: CC[C@H](C)[C@@H]1NC(=O)[C@H](CC(=O)O)NC(=O)[C@H](CC(C)C)NC(=O)c2ccc(-c3ccc(N4CCN(C(=O)c5ccccc5-c5ccccc5C(=O)N5CCN(c6ccc(-c7ccc8cc7CNC(=O)[C@@H]7CCCN7[C@H](C(=O)NC(C)(C)C)[C@H](C)NC(=O)[C@H]([C@@H](C)CC)NC(=O)[C@H](CC(=O)O)NC(=O)[C@H](CC(C)C)NC8=O)cc6)CC5)CC4)cc3)c(c2)CNC(=O)[C@@H]2CCCN2[C@H](C(=O)NC(C)(C)C)[C@H](C)NC1=O
readout_label: Cmax
quantitative_readout: 0.927

* * *

test_name: Pharmacokinetics in rats, single i.v. bolus (Example 11)
Format: in vivo, Sprague Dawley or Wistar rats
measurement_parameters: male, plasma, iv, rat, 511 nmol/kg
readout_label: half-life

compound: CC[C@H](C)[C@@H]1NC(=O)[C@H](CC(=O)O)NC(=O)[C@H](CC(C)C)NC(=O)c2ccc(-c3ccc(N4CCN(C(=O)c5ccccc5-c5ccccc5C(=O)N5CCN(c6ccc(-c7ccc8cc7CNC(=O)[C@@H]7CCCN7[C@H](C(=O)NC(C)(C)C)[C@H](C)NC(=O)[C@H]([C@@H](C)CC)NC(=O)[C@H](CC(=O)O)NC(=O)[C@H](CC(C)C)NC8=O)cc6)CC5)CC4)cc3)c(c2)CNC(=O)[C@@H]2CCCN2[C@H](C(=O)NC(C)(C)C)[C@H](C)NC1=O [Compound 1]
readout_label: half-life
result: 7.88 h

* * *

test_name: Pharmacokinetics in rats, single i.v. bolus (Example 11)
Format: in vivo, Sprague Dawley or Wistar rats
measurement_parameters: male, plasma, iv, rat, 511 nmol/kg
readout_label: AUC(0-inf)

compound: CC[C@H](C)[C@@H]1NC(=O)[C@H](CC(=O)O)NC(=O)[C@H](CC(C)C)NC(=O)c2ccc(-c3ccc(N4CCN(C(=O)c5ccccc5-c5ccccc5C(=O)N5CCN(c6ccc(-c7ccc8cc7CNC(=O)[C@@H]7CCCN7[C@H](C(=O)NC(C)(C)C)[C@H](C)NC(=O)[C@H]([C@@H](C)CC)NC(=O)[C@H](CC(=O)O)NC(=O)[C@H](CC(C)C)NC8=O)cc6)CC5)CC4)cc3)c(c2)CNC(=O)[C@@H]2CCCN2[C@H](C(=O)NC(C)(C)C)[C@H](C)NC1=O [Compound 1]
result: 34 µM·h

* * *

test_name: in vivo
measurement_parameters: male, Beagle, dog, plasma, sc, 100 ug/kg
readout_label: Tmax (h)

compound: CC[C@H](C)[C@@H]1NC(=O)[C@H](CC(=O)O)NC(=O)[C@H](CC(C)C)NC(=O)c2ccc(-c3ccc(N4CCN(C(=O)c5ccccc5-c5ccccc5C(=O)N5CCN(c6ccc(-c7ccc8cc7CNC(=O)[C@@H]7CCCN7[C@H](C(=O)NC(C)(C)C)[C@H](C)NC(=O)[C@H]([C@@H](C)CC)NC(=O)[C@H](CC(=O)O)NC(=O)[C@H](CC(C)C)NC8=O)cc6)CC5)CC4)cc3)c(c2)CNC(=O)[C@@H]2CCCN2[C@H](C(=O)NC(C)(C)C)[C@H](C)NC1=O [Compound 1]
readout_label: Tmax
quantitative_readout: 20
